Source listed as patent US11104652B2.

Attribute: ALT
# Test system: CD-1 mice
# method: Toxicity studies: expression levels of ALT and AST after ASS1 mRNA-loaded lipid nanoparticles
# Type: in vivo, mouse
# condition: Table 2; single intravenous dose, 24 hours post; formulation cKK-E12:DOPE:Chol:DMG-PEG2K; several lots per structure; in U/L
Answer with a number only.

Past entries and their recorded results:
I would be grateful if you could share the reported ALT for CCCCCCCCCC[C@H](O)CN(CCCC[C@@H]1NC(=O)[C@H](CCCCN(C[C@@H](O)CCCCCCCCCC)C[C@@H](O)CCCCCCCCCC)NC1=O)C[C@@H](O)CCCCCCCCCC .
226

Look up ALT for this molecule: CCCCCCCCCC[C@@H](O)CN(CCCC[C@H]1NC(=O)[C@@H](CCCCN(C[C@H](O)CCCCCCCCCC)C[C@H](O)CCCCCCCCCC)NC1=O)C[C@H](O)CCCCCCCCCC
136

Tell me the measured ALT of CCCCCCCCCCC(O)CN(CCCC[C@@H]1NC(=O)[C@H](CCCCN(CC(O)CCCCCCCCCC)CC(O)CCCCCCCCCC)NC1=O)CC(O)CCCCCCCCCC (stereo in doubt) , please.
175

We next turn to a different molecule, shown below.
What value of ALT has been recorded for this entry: CCCCCCCCCC[C@H](O)CN(CCCC[C@H]1NC(=O)[C@@H](CCCCN(C[C@@H](O)CCCCCCCCCC)C[C@@H](O)CCCCCCCCCC)NC1=O)C[C@@H](O)CCCCCCCCCC
152
